TEST_NAME: chemical genetic growth profiling, strain panel (AID 1159580);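 also: tested at 20 µM; growth read once vehicle control cultures reached saturation at 30 °C; 1 = growth at the plate median or of vehicle wells; lower values mean less growth of the strain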
MEASUREMENT_CONDITIONS: S. cerevisiae deletion strains, growth OD, locus YPL256C, strain CLN2
Out of some 5,500 compounds screened, about 2,000 (36%) were called active. Another 18% or so got no clear call; they are omitted. Rule as the data show it: active = normalized growth mostly below about 0.91 (no sharp cut-off); inconclusive = no clear call, values can overlap the other calls; inactive = mostly above about 0.92. This is one part of the list.
I would appreciate it if you answered using one of these outcomes: active, inactive

Solved cases (5 shown):
compound=Clc1ccc2c(c1)CCc1cccnc1C2=C1CCNCC1 qualitative_label=inactive
compound="CC(=O)C1CC[C@H]2C3CC[C@H]4C[C@H](O)CC[C@]4(C)C3CC[C@]12C (some centres not stated)" qualitative_label=inactive
compound="CCCCCCCCCCCCCCCC(=O)OCC(O)CO (configuration not stated)" qualitative_label=inactive
compound=COc1ccc(-c2oc3cc(OC)c(OC)c(OC)c3c(=O)c2OC)cc1OC qualitative_label=inactive
compound=NC(=O)CC[C@H](N)C(=O)O qualitative_label=inactive

Record request — test call for c1ccc2c(CC3=NCCN3)cccc2c1
inactive

What outcome does the record of this test show for C[C@@H]1CC[C@H]2C(C)(C)C3CC12CC[C@@]3(C)O (some centres not stated) ?
inactive

How did this test come out for COc1c(C)c2c(c(O)c1C/C=C(\C)CCC(=O)O)C(=O)OC2 ?
active

Recorded test outcome, item Fc1ccc([C@@H]2CCNC[C@H]2COc2ccc3c(c2)OCO3)cc1
inactive

What is the recorded call for this compound in the test? COc1ccc(-c2csc(-c3cccnc3)n2)cc1
inactive

Short answer needed: outcome of this test for CC1CCC(NC(=O)N(CCCl)N=O)CC1 (configuration not stated) ?
inactive

Outcome? C=C[C@@]1(C)CC(=O)[C@@]2(O)[C@](C)(O1)[C@@H](OC(C)=O)[C@@H](O)C1C(C)(C)CC[C@H](O)[C@@]12C (some centres not stated)
inactive

Answer briefly: the call reported for O=C(O)[C@@H](S)[C@@H](S)C(=O)O in this assay.
active

Outcome? Clc1ccc(-c2cnc(Nc3cc(Cl)cc(Cl)c3)s2)cc1
active

Could you check what this test reported for COc1ccc(Nc2nc(NC(=O)Nc3ccc(Cl)cc3)n[nH]2)cc1 ?
active

Called result for CC(Oc1ccc(Cl)cc1Cl)C(=O)O (configuration not stated)
inactive

Each compound tested received a call. Report the one for Nc1nc(F)nc2c1ncn2[C@@H]1O[C@H](COP(=O)(O)O)[C@@H](O)[C@@H]1O .
inactive

Hello, I am checking results. What call was entered for Cc1ccc(NC(=S)C(C#N)C(=O)N2CCOCC2)c(C)c1 (configuration not stated) ?
inactive

----------
TEST_NAME: chemical genetic growth profiling, strain panel (AID 1159580);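 also: tested at 20 µM; growth read once vehicle control cultures reached saturation at 30 °C; 1 = growth at the plate median or of vehicle wells; lower values mean less growth of the strain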
MEASUREMENT_CONDITIONS: S. cerevisiae deletion strains, growth OD, locus YKL067W, strain YNK1, hits give low values
The campaign covered roughly 5,500 compounds. About 2,000 (36%) were called active. Roughly 18% stayed inconclusive and do not appear here. The list shows a part of the results.
MEASURE_NAME: normalized growth
Answer field: number only, no words.

Some molecules with known normalized growth results, for comparison:
mol=O=[N+]([O-])c1ccsc1Oc1cccc(C(F)(F)F)c1 measure_name="normalized growth" measured_number=0.905
mol=O=C(Oc1ccc2ccccc2c1C1SCCS1)c1ccc([N+](=O)[O-])o1 measure_name="normalized growth" measured_number=0.909

Note to self: normalized growth recorded for COc1ccc(-c2csc(-c3cccnc3)n2)cc1 was 0.912
